Just for reference, patent US6066642A is where these values come from.

# assayed_system: A2a receptors (Rattus norvegicus)
# Construct: Displacement of specific [^3 H]; from tissue; host or cells: rat striatal membranes
# test: radioligand binding, displacement of specific [3H]CGS 21680 binding in rat striatal membranes
# condition_context: Table 12; 10^-4 M; read-out: % inhibition rA2A
List of inhibition at 100 µM values.
observation_type: inhibition at 100 µM (%)

1) C=CCOC(=O)C1=C(C)NC(c2ccccc2)=C(C(=O)OCC)C1/C=C/c1ccc([N+](=O)[O-])cc1 (stereo not shown): 15
2) CCOCN1C(C)=C(C(=O)OCC)C(C#Cc2ccccc2)C(C(=O)O)=C1c1ccccc1 (racemic): 36
3) CCCOC(=O)C1=C(C)NC(c2ccccc2)=C(C(=O)OCc2ccccc2)C1C#Cc1ccccc1 (racemic): 16
4) CCOC(=O)C1=C(C)NC(c2ccccc2)=C(C(=O)SCC)C1C#Cc1ccccc1 (racemic) [Compound 130a]: 17

====

# assayed_system: A2a receptors (Rattus norvegicus)
# Construct: Displacement of specific [^3 H]; from tissue; host or cells: rat striatal membranes
# test: radioligand binding, displacement of specific [3H]CGS 21680 binding in rat striatal membranes
# condition_context: Table 12; 10^-4 M; read-out: % inhibition rA2A
List of inhibition at 100 µM values.
observation_type: inhibition at 100 µM

1. CCOC(=O)C1=C(c2ccccc2)NC(C)=C(C(=O)OC[C@H](OC)c2ccccc2)C1C#Cc1ccccc1 (mixture of isomers): 33%
2. CCOC(=O)C1=C(C)NC(c2ccccc2)=C(C(=O)OCc2cccc(I)c2)C1C#Cc1ccccc1 (stereo not shown) [Compound 122e]: 19%
3. CCOCN1C(C)=C(C(=O)OCC)C(C#Cc2ccccc2)C(C(=O)OCC[Si](C)(C)C)=C1c1ccccc1 (racemic): 19%
4. CCOC(=O)C1=C(C)N(COC)C(c2ccccc2)=C(C(=O)OCC[Si](C)(C)C)C1C#Cc1ccccc1 (racemic): 27%

====

# assayed_system: A1 receptors (Rattus norvegicus, UniProt P25099)
# Sequence (P25099 1-326): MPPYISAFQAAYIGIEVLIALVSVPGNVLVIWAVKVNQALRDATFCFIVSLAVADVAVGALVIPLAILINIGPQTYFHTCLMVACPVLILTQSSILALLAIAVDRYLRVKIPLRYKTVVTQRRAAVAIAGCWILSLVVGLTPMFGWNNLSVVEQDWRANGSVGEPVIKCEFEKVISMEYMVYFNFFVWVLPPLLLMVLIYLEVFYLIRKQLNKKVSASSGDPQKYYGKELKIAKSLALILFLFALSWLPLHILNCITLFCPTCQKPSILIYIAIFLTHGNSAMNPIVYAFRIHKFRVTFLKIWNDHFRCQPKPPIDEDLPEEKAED
# test: biochemical
# Format: binding
# condition_context: brain membranes; read-out: K2 (rA1)
observation_type: Ki (nM)

1) COc1ccc(-c2cc(=O)c3c(O)cc(C)cc3o2)cc1 [Compound 29, reference compound]: 3400
2) COc1ccc(-c2cc(=O)c3c(OC)c(OC)c(OC)cc3o2)cc1 [Compound 31, reference compound]: 1290

====

# assayed_system: A2a receptors (Rattus norvegicus, UniProt P30543)
# Construct: Displacement of specific [^3 H]; from tissue; host or cells: rat striatal membranes
# Sequence (P30543 whole entry): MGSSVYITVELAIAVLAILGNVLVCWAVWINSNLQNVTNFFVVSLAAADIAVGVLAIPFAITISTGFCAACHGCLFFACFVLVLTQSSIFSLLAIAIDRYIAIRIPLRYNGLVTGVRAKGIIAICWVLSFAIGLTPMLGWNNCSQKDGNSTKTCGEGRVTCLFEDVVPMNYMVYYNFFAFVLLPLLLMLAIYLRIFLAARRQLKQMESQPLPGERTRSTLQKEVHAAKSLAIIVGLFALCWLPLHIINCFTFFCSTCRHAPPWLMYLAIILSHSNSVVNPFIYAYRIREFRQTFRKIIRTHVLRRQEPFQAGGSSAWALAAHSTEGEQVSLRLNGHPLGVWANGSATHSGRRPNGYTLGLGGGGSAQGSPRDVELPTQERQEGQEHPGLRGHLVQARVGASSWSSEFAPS
# test: radioligand binding, displacement of specific [3H]CGS 21680 binding in rat striatal membranes
# condition_context: Table 11; 10^-4 M; read-out: displacement of specific binding rA2A
List of inhibition at 100 µM values.
observation_type: inhibition at 100 µM

1) CCOC(=O)C1=C(C)NC(c2ccccc2)=C(C(=O)OCc2ccccc2)C1/C=C/c1ccc([N+](=O)[O-])cc1 (stereo not shown) [Compound 100]: < 10%
2) CCOC(=O)C1=C(c2ccccc2)NC(C)=C(C(=O)OCc2ccccc2)C1/C=C/c1ccc([N+](=O)[O-])cc1 (stereo not shown) [Compound 106]: < 10%
3) CCOC(=O)C1=C(C)NC(c2ccc(OC)cc2)=C(C(=O)OCC)C1/C=C/c1ccccc1 (stereo not shown) [Compound 89]: < 10%
4) CCOC(=O)C1=C(c2ccccc2)NC(C)=C(C(=O)OCc2ccccc2)C1C#Cc1ccccc1 (stereo not shown) [Compound 107]: < 10%
5) CCOC(=O)C1=C(C)NC(c2ccccc2)=C(C(=O)OCc2ccccc2)C1C#Cc1ccccc1 (stereo not shown) [Compound 101]: < 10%
6) CCOC(=O)C1=C(C)NC(c2ccccc2)=C(C(=O)OCC)C1/C=C/c1ccccc1[N+](=O)[O-] (stereo not shown) [Compound 95]: < 10%
7) CCOC(=O)C1=C(C)NC(c2ccsc2)=C(C(=O)OCC)C1/C=C/c1ccccc1 (stereo not shown) [Compound 93]: < 10%
